Recorded EC50 values for a group of molecules are listed next.
target: S1P1/EDG1 (Homo sapiens); assay: S1P1 CRE-bla CHOK1 reporter assay (inhibition of Forskolin induced cAMP); format: cell-based; details: agonist activity range, S1P1 CRE-bla CHOK1 cells, 2 μM Forskolin; read-out: S1P1 ACTIVITY

| molecule | EC50 |
| --- | --- |
| CC(C)Oc1ccc(-c2nc(-c3cccc4c3CCC[C@@H]4NS(=O)(=O)CCN(C)C)no2)cc1C#N | 0.5 to 5 nM |
| CC(C)Oc1ccc(-c2nc(-c3cccc4c3CCC[C@@H]4NC(=O)N3CCC[C@H](O)C3)no2)cc1C#N | 0.5 to 5 nM |
| CC(C)Oc1ccc(-c2nc(-c3cccc4c3CCC[C@H]4NC(=O)CN(C)C)no2)cc1C#N | 0.5 to 5 nM |
| CC(C)Oc1ccc(-c2ncc(-c3cccc4c3CCC4NCCO)o2)cc1C#N (centres unmarked) | 0.5 to 5 nM |
| CC(C)Oc1ccc(-c2nc(-c3cccc4c3CCC[C@H]4NCC(=O)O)no2)cc1C#N | < 0.05 nM |
| CC(C)Oc1ccc(-c2nc(-c3cccc4c3CCC[C@@H]4NCC(=O)N3CCCC3)no2)cc1C#N | 0.05 to 0.5 nM |
| CC(C)Oc1ccc(-c2nc(-c3cccc4c3CCC[C@H]4NCCS(C)(=O)=O)no2)cc1C#N | 0.05 to 0.5 nM |
| CC(C)Oc1ccc(-c2nc(-c3ccnc(CO)c3)no2)cc1C#N | 0.05 to 0.5 nM |

###

biological target: S1P1/EDG1 (Homo sapiens, UniProt P21453); experiment: S1P1 CRE-bla CHOK1 reporter assay (inhibition of Forskolin induced cAMP); type: cell-based; conditions: agonist activity range, S1P1 CRE-bla CHOK1 cells, 2 μM Forskolin; read-out: S1P1 ACTIVITY
Sequence (P21453 whole entry): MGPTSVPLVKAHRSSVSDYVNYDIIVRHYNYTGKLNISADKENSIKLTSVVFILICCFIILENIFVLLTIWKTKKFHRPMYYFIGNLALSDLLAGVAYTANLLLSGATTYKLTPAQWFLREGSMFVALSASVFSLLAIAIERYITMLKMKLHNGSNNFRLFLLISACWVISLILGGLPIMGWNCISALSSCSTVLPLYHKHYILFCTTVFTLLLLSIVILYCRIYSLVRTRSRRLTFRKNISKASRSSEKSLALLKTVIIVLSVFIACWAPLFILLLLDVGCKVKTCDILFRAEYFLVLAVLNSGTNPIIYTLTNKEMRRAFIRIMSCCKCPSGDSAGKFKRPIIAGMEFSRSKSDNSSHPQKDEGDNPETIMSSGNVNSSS
Structures can show the parent of a compound that is named as a salt.
Recorded EC50 values for a group of compounds are listed next.

| compound | studySystem | EC50 |
| --- | --- | --- |
| OCCN[C@@H]1CCc2c(-c3noc(-c4cc(-c5ccccc5)c(C(F)(F)F)s4)n3)cccc21 [Compound 67] | S1P1/EDG1 (Homo sapiens, UniProt P21453) | > 5 nM |
| CC(C)Oc1ccc(-c2nc(-c3cccc4c3CCC[C@@H]4NC(=O)N3CC[C@H](O)C3)no2)cc1C#N [Compound 14] | S1P1/EDG1 (Homo sapiens, UniProt P21453) | 0.05 to 0.5 nM |
| CC(C)Oc1ccc(-c2nc(-c3cccc4c3CCC[C@H]4NS(=O)(=O)CCO)no2)cc1C#N [Compound 37] | S1P1/EDG1 (Homo sapiens, UniProt P21453) | < 0.05 nM |
| CC(C)Oc1ccc(-c2nc(-c3cccc4c3CCC[C@@H]4NC(=O)N(C)C)no2)cc1C#N [Compound 6] | S1P1/EDG1 (Homo sapiens, UniProt P21453) | 0.05 to 0.5 nM |
| CC(C)Oc1ccc(-c2nc(-c3cccc4c3CCC[C@@H]4NS(C)(=O)=O)no2)cc1C#N [Compound 29] | S1P1/EDG1 (Homo sapiens, UniProt P21453) | 0.05 to 0.5 nM |
| CC(C)Oc1ccc(-c2nc(-c3cccc4c3CCC[C@H]4NC(=O)N3CC(C(=O)O)C3)no2)cc1C#N [Compound 10] | S1P1/EDG1 (Homo sapiens, UniProt P21453) | 0.05 to 0.5 nM |
| CCOc1ccc(Cc2nc(-c3cccc4c3CC[C@H]4N)no2)cc1OCC [Compound 65, hydrochloride] | S1P1/EDG1 (Homo sapiens, UniProt P21453) | > 5 nM |
